biological target: ROCK1 (Homo sapiens (Human)); experiment: biochemical
Sequence (Q13464 2-1354 limits assumed): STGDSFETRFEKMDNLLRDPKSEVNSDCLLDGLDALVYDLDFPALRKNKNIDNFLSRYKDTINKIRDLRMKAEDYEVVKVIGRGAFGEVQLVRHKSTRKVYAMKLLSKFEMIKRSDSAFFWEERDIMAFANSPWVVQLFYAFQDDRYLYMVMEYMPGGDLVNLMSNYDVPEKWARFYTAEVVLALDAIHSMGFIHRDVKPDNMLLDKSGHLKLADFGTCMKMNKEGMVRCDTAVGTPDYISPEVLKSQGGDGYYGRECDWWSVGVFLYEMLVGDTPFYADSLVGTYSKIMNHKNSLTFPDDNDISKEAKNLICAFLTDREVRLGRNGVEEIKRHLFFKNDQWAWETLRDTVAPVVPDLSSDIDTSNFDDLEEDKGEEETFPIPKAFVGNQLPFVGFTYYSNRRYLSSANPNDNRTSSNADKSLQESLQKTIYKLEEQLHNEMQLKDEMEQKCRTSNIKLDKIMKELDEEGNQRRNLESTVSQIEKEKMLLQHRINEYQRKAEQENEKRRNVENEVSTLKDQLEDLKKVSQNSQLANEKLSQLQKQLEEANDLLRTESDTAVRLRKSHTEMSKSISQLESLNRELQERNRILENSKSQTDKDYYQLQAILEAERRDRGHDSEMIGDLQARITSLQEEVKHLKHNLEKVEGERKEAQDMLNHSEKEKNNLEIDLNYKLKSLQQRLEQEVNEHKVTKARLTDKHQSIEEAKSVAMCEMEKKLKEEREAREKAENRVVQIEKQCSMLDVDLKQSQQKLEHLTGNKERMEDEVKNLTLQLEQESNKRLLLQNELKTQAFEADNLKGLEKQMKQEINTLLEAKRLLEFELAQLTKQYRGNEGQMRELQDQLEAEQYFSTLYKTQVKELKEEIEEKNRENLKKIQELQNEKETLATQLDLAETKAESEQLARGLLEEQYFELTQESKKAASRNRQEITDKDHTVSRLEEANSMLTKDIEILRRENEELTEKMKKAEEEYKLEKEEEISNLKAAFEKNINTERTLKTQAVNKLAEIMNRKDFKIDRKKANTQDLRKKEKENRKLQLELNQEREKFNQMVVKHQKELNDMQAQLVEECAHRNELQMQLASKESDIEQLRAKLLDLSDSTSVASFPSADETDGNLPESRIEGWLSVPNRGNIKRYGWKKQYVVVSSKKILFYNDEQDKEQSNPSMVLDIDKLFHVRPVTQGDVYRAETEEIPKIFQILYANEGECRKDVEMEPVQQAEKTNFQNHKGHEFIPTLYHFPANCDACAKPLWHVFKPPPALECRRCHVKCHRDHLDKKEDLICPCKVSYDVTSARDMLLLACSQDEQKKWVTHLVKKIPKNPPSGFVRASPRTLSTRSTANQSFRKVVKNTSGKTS
param class (str): category from Ki; see ranges zone 1: < 30 nM; zone 2: ≥ 30 nM and < 500 nM; zone 3: ≥ 500 nM

Reference set, count: 6
compound | category-label
c1cc(-c2c[nH]c3nccc(N4CCC[C@H](NC5CC5)C4)c23)cnn1 [Example E46] | zone 1
CN[C@H]1CCCN(c2ccnc3[nH]cc(-c4ccncn4)c23)C1 [Example E66] | zone 2
Cc1cnc(-c2c[nH]c3nccc(N4CC[C@@]5(CCCCN5)C4)c23)s1 [Example E131] | zone 2
CN1CC[C@H]2CN(c3ccnc4[nH]cc(-c5cncnc5)c34)CC[C@H]21 [Example E200] | zone 2
CCN1CCCCC12CCCN(c1ccnc3[nH]cc(-c4ncc(C)s4)c13)C2 (stereo not drawn) [Example E210] | zone 3
c1cc(N2CCC3(CCCN3)C2)c2c(-c3ccsn3)c[nH]c2n1 (stereo not drawn) [Example E136] | zone 2

Query string: Class label required: c1cc(N2CCC[C@]3(CCCCN3)C2)c2c(-c3ncsn3)c[nH]c2n1 [Example E115]
Result string: zone 3

Query string: Likewise for Nc1cncc(-c2c[nH]c3nccc(N4CCCCC4)c23)c1 [Example E6] ?
Result string: zone 1

Query string: Likewise for OC1CCN([C@H]2CCCN(c3ccnc4[nH]cc(-c5cncnc5)c34)C2)C1 (stereo partly drawn) [Example E93] ?
Result string: zone 3

Query string: Likewise for Fc1cccnc1-c1c[nH]c2nccc(N3CCCC4(CCCCN4)C3)c12 (stereo not drawn) [Example E169] ?
Result string: zone 3

Query string: Likewise for c1csc(-c2c[nH]c3nccc(N4CC[C@@]5(CCCCN5)C4)c23)n1 [Example E133] ?
Result string: zone 1

Query string: Likewise for N#Cc1c[nH]c2nccc(N3CCC4(CCCCN4)C3)c12 (stereo not drawn) [Example E184] ?
Result string: zone 1

---

So I've got a bunch of compounds here, and I need their pKi values.
target: UniProtKB Q13464; settings: read-out: ROCK1 Average Ki; 1 μM ATP
One number for each entry, as −log10 of the molar value.

Here is how some compounds turned out for pKi.
compound | test-system | pKi
N#Cc1cc(-c2c[nH]c3nccc(N4CCCCC4)c23)cnc1N [Example E7] | UniProtKB Q13464 | 6.30
c1ccc(-c2c[nH]c3nccc(N4CCC[C@]5(CCCCN5)C4)c23)nc1 [Example E140] | UniProtKB Q13464 | 7.01
c1cc(-c2c[nH]c3nccc(N4CCCCC4)c23)ncn1 [Example E4] | UniProtKB Q13464 | 7.55
c1ccc(-c2c[nH]c3nccc(N4CCC[C@@]5(CCCCN5)C4)c23)nc1 [Example E139] | UniProtKB Q13464 | 7.00
CN[C@H]1CCCN(c2ccnc3[nH]cc(-c4cnsc4)c23)C1 [Example E67] | UniProtKB Q13464 | 6.96

Parameters: items (list). Returns: pKi for each item.
1. c1cnnc(-c2c[nH]c3nccc(N4CCCC5(CCCCN5)C4)c23)c1 (stereo not drawn) [Example E175]
2. Cc1cnc(-c2c[nH]c3nccc(N4CC[C@]5(CCCCN5)C4)c23)s1 [Example E130]
3. COC[C@@H]1CCCN1c1ccnc2[nH]cc(C#N)c12 [Example E108]
4. c1csc(-c2c[nH]c3nccc(N4CCCC5(CCCCN5)C4)c23)n1 (stereo not drawn) [Example E149]

Result string:
1. 5.73
2. 4.00
3. 7.66
4. 6.52

---

molecular target: MRCKβ (Homo sapiens (Human), UniProt Q9Y5S2); assay: MRCKβ kinase assay (IMAP fluorescence polarization); type: biochemical; settings: 1 μM ATP; read-out: MRCK-B Average Ki
readout-name: Ki
# number then unit; no other words

Here is how some molecules turned out for Ki.
molecule | Ki
CCN1CCCC[C@@]12CCCN(c1ccnc3[nH]cc(-c4ccncn4)c13)C2 [Example E207] | 0.0395 nM
Cn1nccc1-c1c[nH]c2nccc(N3CCCCC3)c12 [Example E18] | 818 nM
c1ncc(-c2c[nH]c3nccc(OC4CCNCC4)c23)cn1 [Example E223] | 5.84 nM
CC(C)N[C@H]1CCCN(c2ccnc3[nH]cc(-c4cncnc4)c23)C1 [Example E76] | 871 nM

Parameters: items (list). Returns: Ki for each item.
1. Cc1cnc(-c2c[nH]c3nccc(N4CCC[C@]5(CCCCN5)C4)c23)s1 [Example E148]
2. c1ncc(-c2c[nH]c3nccc(OC[C@@H]4CCNC4)c23)cn1 [Example E219]
3. c1csc(-c2c[nH]c3nccc(N4CC[C@]5(CCCCN5)C4)c23)n1 [Example E132]
4. CCN1CCCCC12CCCN(c1ccnc3[nH]cc(C#N)c13)C2 (stereo not drawn) [Example E211]
5. NCCC1CCN(c2ccnc3[nH]cc(-c4cncnc4)c23)CC1 [Example E238]
6. c1ncc(-c2c[nH]c3nccc(N4CCC[C@H](N5CCCCC5)C4)c23)cn1 [Example E98]

Result string:
1: 4.02 nM; 2: 3.71 nM; 3: 4.11 nM; 4: 0.351 nM; 5: 1.02 nM; 6: 4.24 nM

Parameters: items (list). Returns: Ki for each item.
1. c1cnnc(-c2c[nH]c3nccc(N4CCCC5(CCCCN5)C4)c23)c1 (stereo not drawn) [Example E175]
2. c1cc(-c2c[nH]c3nccc(N4CCC5(CCCN5)C4)c23)cnn1 (stereo not drawn) [Example E161]
3. c1ncc(-c2c[nH]c3nccc(N4CCC5(CCNC5)CC4)c23)cn1 [Example E190]
4. CN1CC[C@@H]2CCN(c3ccnc4[nH]cc(-c5cncnc5)c34)C[C@@H]21 [Example E180]
5. c1cc(N2CCC2)c2c(-c3cn[nH]c3)c[nH]c2n1 [Example E27]
6. Cc1cnc(-c2c[nH]c3nccc(N4CCC5(CCN5)C4)c23)s1 (stereo not drawn) [Example E152]
7. Cn1cc(-c2c[nH]c3nccc(N4CCCC5(CCCCN5)C4)c23)cn1 (stereo not drawn) [Example E188]

Result string:
1. 1.5 nM
2. 0.933 nM
3. 0.973 nM
4. 124 nM
5. 130 nM
6. 4.65 nM
7. 1.52 nM

Query string: Would you mind telling me what Ki value was observed for N[C@H]1CCN(c2ccnc3[nH]cc(-c4cncnc4)c23)C1 [Example E58] ?
Result string: 3.48 nM

---

target: ROCK2 (Homo sapiens (Human), UniProt O75116); assay: ROCK2 kinase assay (IMAP fluorescence polarization); type: biochemical; details: 1 μM ATP; read-out: ROCK2 Average Ki
Sequence (O75116 whole entry): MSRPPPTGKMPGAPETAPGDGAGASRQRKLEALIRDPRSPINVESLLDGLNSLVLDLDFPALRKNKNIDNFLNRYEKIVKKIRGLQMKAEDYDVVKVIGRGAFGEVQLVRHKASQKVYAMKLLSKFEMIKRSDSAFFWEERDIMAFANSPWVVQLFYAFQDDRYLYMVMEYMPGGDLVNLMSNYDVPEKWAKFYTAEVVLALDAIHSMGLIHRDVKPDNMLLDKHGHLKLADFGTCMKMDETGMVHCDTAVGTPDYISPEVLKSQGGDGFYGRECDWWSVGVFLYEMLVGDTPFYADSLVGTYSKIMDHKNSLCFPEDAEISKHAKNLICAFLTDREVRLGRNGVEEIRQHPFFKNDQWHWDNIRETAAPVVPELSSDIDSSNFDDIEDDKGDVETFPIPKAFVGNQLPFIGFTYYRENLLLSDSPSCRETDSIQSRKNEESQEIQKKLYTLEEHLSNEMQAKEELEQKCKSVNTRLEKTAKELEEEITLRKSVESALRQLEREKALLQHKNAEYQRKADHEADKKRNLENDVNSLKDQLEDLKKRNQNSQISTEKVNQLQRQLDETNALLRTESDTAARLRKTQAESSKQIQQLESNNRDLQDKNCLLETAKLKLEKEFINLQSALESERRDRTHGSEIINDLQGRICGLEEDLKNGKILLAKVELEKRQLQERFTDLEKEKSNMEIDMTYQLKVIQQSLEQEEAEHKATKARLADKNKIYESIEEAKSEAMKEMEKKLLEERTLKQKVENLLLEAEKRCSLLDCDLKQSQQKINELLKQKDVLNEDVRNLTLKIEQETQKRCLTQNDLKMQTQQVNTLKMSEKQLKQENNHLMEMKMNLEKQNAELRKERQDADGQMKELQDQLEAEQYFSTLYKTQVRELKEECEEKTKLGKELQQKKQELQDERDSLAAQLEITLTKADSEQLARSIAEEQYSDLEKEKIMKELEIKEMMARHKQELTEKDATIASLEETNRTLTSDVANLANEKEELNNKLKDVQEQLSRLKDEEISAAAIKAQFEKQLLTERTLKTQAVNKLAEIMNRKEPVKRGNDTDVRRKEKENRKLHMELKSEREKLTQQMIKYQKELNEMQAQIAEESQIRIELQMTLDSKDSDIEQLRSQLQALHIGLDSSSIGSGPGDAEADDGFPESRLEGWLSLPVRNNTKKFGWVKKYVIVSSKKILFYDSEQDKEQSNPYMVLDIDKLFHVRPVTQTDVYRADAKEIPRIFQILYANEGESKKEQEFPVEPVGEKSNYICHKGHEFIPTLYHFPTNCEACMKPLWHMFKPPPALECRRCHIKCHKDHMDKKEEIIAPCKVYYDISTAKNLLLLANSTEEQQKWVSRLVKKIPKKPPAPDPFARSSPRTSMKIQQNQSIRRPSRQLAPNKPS
readout-name: pKi
Answers are plain numbers, as −log10 of the molar value.

Here is how some molecules turned out for pKi.
molecule | pKi
CN(C)[C@H]1CCCN(c2ccnc3[nH]cc(-c4cncnc4)c23)C1 | 6.44
CNC(=O)c1cncc(-c2c[nH]c3nccc(N4CCCCC4)c23)c1 | 5.76
O[C@H]1CCCN(c2ccnc3[nH]cc(-c4cncnc4)c23)C1 | 6.44
c1ncc(-c2c[nH]c3nccc(N[C@@H]4CCCNC4)c23)cn1 | 7.15
CN[C@H]1CCCN(c2ccnc3[nH]cc(-c4ccncn4)c23)C1 | 7.00

Parameters: items (list). Returns: pKi for each item.
1. c1ncc(-c2c[nH]c3nccc(NC4CCCCNC4)c23)cn1 (stereo not shown)
2. Nc1cncc(-c2c[nH]c3nccc(N4CCCCC4)c23)c1
3. c1ncc(-c2c[nH]c3nccc(N4CCC5(CCNCC5)C4)c23)cn1
4. c1cncc(-c2c[nH]c3nccc(N4CCC4)c23)c1
5. c1ncc(-c2c[nH]c3nccc(N4CCC[C@]5(CCCCN5)C4)c23)cn1
6. c1cc(N2CCC[C@@]3(CCCCN3)C2)c2c(-c3ccsn3)c[nH]c2n1

Result string:
1. 6.34
2. 8.72
3. 8.11
4. 6.58
5. 6.37
6. 8.32

---

Molecular target: MRCKα (Homo sapiens (Human))
Sequence (Q5VT25 whole entry): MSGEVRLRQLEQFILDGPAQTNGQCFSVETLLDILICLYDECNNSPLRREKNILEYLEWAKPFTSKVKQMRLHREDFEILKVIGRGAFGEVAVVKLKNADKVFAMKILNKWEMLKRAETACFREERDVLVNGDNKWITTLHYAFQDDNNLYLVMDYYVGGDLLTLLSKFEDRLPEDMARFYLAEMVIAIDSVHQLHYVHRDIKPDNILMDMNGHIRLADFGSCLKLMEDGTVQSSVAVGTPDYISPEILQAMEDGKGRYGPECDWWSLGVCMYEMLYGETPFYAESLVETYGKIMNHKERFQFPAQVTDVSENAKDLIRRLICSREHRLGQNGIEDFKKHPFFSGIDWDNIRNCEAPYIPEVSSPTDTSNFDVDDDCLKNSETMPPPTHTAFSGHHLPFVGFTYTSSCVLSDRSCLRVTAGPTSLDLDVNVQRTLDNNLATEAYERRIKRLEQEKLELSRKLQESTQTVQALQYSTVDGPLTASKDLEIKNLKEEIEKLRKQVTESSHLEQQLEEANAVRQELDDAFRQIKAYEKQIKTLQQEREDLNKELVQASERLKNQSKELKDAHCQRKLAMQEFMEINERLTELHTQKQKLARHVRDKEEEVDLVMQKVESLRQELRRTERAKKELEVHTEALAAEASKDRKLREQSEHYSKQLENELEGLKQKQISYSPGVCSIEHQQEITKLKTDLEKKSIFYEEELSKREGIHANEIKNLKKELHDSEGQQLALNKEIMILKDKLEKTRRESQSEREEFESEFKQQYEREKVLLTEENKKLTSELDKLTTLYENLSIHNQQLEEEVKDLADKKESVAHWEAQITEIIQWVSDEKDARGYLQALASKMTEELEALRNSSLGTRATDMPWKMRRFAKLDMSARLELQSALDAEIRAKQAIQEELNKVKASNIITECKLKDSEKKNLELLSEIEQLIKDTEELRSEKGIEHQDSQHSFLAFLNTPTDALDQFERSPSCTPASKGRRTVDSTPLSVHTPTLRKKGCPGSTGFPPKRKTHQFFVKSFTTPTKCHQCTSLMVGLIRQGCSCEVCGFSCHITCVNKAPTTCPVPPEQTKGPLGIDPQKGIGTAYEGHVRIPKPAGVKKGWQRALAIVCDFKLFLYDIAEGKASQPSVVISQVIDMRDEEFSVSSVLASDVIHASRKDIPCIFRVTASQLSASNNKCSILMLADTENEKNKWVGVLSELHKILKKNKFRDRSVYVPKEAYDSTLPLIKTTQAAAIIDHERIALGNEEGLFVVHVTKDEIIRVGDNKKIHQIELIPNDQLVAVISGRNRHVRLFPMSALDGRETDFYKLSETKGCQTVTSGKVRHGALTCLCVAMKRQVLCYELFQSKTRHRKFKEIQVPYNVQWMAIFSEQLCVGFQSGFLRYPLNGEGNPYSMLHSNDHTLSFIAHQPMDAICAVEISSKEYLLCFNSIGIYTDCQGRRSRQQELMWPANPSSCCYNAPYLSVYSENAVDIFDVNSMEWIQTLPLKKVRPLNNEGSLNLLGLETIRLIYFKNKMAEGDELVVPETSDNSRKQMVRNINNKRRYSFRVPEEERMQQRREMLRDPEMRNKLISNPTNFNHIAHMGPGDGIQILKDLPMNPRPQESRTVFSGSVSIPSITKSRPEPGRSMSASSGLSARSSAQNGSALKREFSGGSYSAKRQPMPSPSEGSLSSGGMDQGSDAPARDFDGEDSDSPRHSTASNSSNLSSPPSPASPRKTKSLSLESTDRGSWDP
Test: MRCKα kinase assay (IMAP fluorescence polarization)
Format: biochemical
Conditions: 1 μM ATP; read-out: MRCK-a Average Ki
From the text: MRCKα, MRCKβ, ROCK1 and ROCK2 Kinase Assays
readout-name: pKi
Numbers only, as −log10 of the molar value.

molecule | measured
c1cc(N2CCCC3(CCCCN3)C2)c2c(-c3ncsn3)c[nH]c2n1 (stereo not shown) | 10.02
Fc1cncc(-c2c[nH]c3nccc(N4CCCC5(CCCCN5)C4)c23)c1 (stereo not shown) | 10.19
c1cc(-c2c[nH]c3nccc(N4CCC[C@H](NC5CC5)C4)c23)cnn1 | 9.49
c1cc(-c2c[nH]c3nccc(N4CCC[C@@]5(CCCCN5)C4)c23)ncn1 | 10.87
c1csc(-c2c[nH]c3nccc(N4CCC[C@@]5(CCCCN5)C4)c23)n1 | 10.48
CN[C@H]1CCCN(c2ccnc3[nH]cc(-c4ccncn4)c23)C1 | 9.62
c1ccc(-c2c[nH]c3nccc(N4CCC[C@@]5(CCCCN5)C4)c23)nc1 | 10.36
N#Cc1c[nH]c2nccc(N3CCCC3)c12 | 7.09

Parameters: items (list). Returns: pKi for each item.
1. c1cnc(-c2c[nH]c3nccc(N4CCCC5(CCCCN5)C4)c23)nc1 (stereo not shown)
2. CN1CCC[C@@H](COc2ccnc3[nH]cc(-c4cncnc4)c23)C1
3. c1ncc(-c2c[nH]c3nccc(N4CCCC5(CCCN5)C4)c23)cn1 (stereo not shown)
4. CC1(N)CCCN(c2ccnc3[nH]cc(-c4nccs4)c23)C1 (stereo not shown)
5. c1cc(N2CCCCC2)c2c(-c3cn[nH]c3)c[nH]c2n1
6. CNc1ccnc2[nH]cc(C#N)c12
7. c1ncc(-c2c[nH]c3nccc(N4CCCCC4)c23)cn1
8. CCN1CCCCC12CCCN(c1ccnc3[nH]cc(-c4nccs4)c13)C2 (stereo not shown)

Result string:
1. 8.87
2. 8.72
3. 8.33
4. 10.03
5. 7.90
6. 6.90
7. 7.85
8. 10.00

Parameters: items (list). Returns: pKi for each item.
1. N#Cc1c[nH]c2nccc(N3CCCCC3)c12
2. N[C@H]1CCCN(c2ccnc3[nH]cc(-c4cncnc4)c23)C1
3. c1cc(-c2c[nH]c3nccc(N4CC[C@@]5(CCCCN5)C4)c23)ncn1

Result string:
1. 7.85
2. 8.35
3. 10.50

The reported measurements were obtained from patent US11447505B1.
